Biological target: PARP-1 enzyme (Homo sapiens)
Experiment: In vitro filtration assay for PARP-1 inhibitory activity
Assay type: biochemical
pIC50: −log10 of the molar value.

SUBSTANCE SMILES: O=c1[nH]c(=O)n(CCCN2CCC(c3c[nH]c4ccccc34)CC2)c2ccccc12
pIC50: 5.99

* * *

Target: PARP-1 enzyme (Homo sapiens, UniProt P09874)
Sequence (P09874 whole entry): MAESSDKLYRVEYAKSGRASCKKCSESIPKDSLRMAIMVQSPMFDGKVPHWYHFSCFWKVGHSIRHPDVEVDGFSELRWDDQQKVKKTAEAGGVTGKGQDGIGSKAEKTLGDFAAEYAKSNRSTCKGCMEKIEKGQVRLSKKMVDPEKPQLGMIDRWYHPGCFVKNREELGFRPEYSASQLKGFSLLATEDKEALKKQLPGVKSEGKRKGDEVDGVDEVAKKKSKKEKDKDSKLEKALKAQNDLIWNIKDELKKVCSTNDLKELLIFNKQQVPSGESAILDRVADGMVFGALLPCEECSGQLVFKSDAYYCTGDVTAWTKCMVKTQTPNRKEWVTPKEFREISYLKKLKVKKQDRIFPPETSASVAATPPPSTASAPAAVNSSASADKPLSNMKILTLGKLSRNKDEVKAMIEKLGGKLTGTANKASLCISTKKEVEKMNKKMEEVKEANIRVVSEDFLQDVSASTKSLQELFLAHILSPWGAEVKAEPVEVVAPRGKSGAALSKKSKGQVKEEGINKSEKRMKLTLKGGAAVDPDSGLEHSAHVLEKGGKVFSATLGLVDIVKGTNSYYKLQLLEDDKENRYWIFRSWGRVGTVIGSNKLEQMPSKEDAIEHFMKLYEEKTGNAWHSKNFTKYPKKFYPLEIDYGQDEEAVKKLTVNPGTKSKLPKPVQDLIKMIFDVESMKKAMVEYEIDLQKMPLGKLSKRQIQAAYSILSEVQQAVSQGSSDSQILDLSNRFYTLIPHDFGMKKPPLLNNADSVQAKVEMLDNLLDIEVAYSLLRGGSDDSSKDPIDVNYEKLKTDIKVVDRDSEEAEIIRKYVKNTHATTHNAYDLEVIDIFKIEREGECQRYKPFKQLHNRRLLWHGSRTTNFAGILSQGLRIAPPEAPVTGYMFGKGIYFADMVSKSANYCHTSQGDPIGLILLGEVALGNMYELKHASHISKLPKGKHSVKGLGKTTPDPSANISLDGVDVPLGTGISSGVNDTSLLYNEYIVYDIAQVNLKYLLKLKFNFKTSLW
Experiment: In vitro filtration assay for PARP-1 inhibitory activity
Assay type: biochemical
Conditions: [32P]-NAD, histones, nicked DNA; read-out: in vitro filter assay PARP-1 pIC50 (converted)

COMPOUND: O=C(c1ccc(F)cc1)C1CCN(CCn2c(=O)[nH]c(=O)c3ccccc32)CC1 [Compound 10]
IC50: 1.8 µM
//
COMPOUND: O=c1[nH]c(=O)n(C2CCNCC2)c2ccccc12 [Compound 1]
IC50: 0.465 µM
//
COMPOUND: O=c1[nH]c(=O)n(CCCN2CCC(O)(c3ccc(Cl)cc3)CC2)c2ccccc12 [Compound 7]
IC50: 3.24 µM
//
COMPOUND: O=c1[nH]c(=O)n(C2CCN(CC(O)C3CCc4ccccc4O3)CC2)c2ccccc12 (stereo in doubt) [Compound 9]
IC50: 2.18 µM
//
COMPOUND: O=c1[nH]c(=O)n(CCN2CCC(O)(c3ccc(Cl)cc3)CC2)c2ccccc12 [Compound 6]
IC50: 1.33 µM
//
COMPOUND: O=C(CCCN1CCC(n2c(=O)[nH]c(=O)c3ccccc32)CC1)c1ccc(F)cc1 [Compound 2]
IC50: 1.57 µM
//
COMPOUND: O=C(c1ccc(F)cc1)C1CCN(CCCn2c(=O)[nH]c(=O)c3ccccc32)CC1 [Compound 11]
IC50: 2.72 µM
//
COMPOUND: O=c1[nH]c(=O)n(C2CCN(CCCn3c(=O)[nH]c4ccccc43)CC2)c2ccccc12 [Compound 5]
IC50: 1.74 µM
